- subject-of-test: D(1A) dopamine receptor (Homo sapiens, UniProt P21728)
- Sequence (P21728 whole entry): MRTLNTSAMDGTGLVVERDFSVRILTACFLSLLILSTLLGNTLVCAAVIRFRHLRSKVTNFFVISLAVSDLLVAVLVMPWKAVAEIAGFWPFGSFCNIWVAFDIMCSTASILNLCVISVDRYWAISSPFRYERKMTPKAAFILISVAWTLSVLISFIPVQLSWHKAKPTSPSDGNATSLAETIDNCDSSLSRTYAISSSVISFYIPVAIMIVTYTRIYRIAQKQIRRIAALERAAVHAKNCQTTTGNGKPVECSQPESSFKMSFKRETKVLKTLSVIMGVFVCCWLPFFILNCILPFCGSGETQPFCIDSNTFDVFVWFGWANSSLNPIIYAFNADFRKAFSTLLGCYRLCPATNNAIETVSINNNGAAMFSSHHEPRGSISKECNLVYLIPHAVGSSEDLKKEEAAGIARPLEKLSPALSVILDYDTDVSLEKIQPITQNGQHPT
- run-description: Displacement of [3H]SCH23390 from dopamine D1 receptor expressed in human HEK293 cells by liquid scintillation counter
pKi: −log10 of the molar value.
value-type: pKi

In [3]: df
Out[3]:
                                   compound                           subject_of_test  result_value
0  CCCN1CCc2cccc3c2[C@H]1Cc1cccc(OCc2cn(CCCCN4CCN(c5ccccc5OC)CC4)nn2)c1-3  D(1A) dopamine receptor (Homo sapiens, UniProt P21728)          5.80
1  CCCN1CCc2cccc3c2C1Cc1cccc(OCc2cn(CCCN4CCN(c5cccc(Cl)c5Cl)CC4)nn2)c1-3 (racemic)  D(1A) dopamine receptor (Homo sapiens, UniProt P21728)          5.70
2  CCCN1CCc2cccc3c2[C@H]1Cc1cccc(OCCCCN2CCN(c4ccccc4OC)CC2)c1-3  D(1A) dopamine receptor (Homo sapiens, UniProt P21728)          5.88
3  CCCN1CCc2cccc3c2[C@@H]1Cc1cccc(OCCCCN2CCN(c4ccccc4OC)CC2)c1-3  D(1A) dopamine receptor (Homo sapiens, UniProt P21728)          5.93

----------
- subject-of-test: UniProtKB P14416
- run-description: Displacement of [3H]spiperone from dopamine D2 receptor expressed in human HEK293 cells by liquid scintillation counter
pKi: −log10 of the molar value.
value-type: pKi

In [3]: df
Out[3]:
                                   compound  value_type  result_value
0  CCCN1CCc2cccc3c2[C@H]1Cc1cccc(OCc2cn(CCCCN4CCN(c5ccccc5OC)CC4)nn2)c1-3         pKi          6.21
1  CCCN1CCc2cccc3c2C1Cc1cccc(OCCCn2cc(CCN4CCN(c5ccccc5OC)CC4)nn2)c1-3 (racemic)         pKi          5.13
2  CCCN1CCc2cccc3c2[C@@H]1Cc1cccc(OCc2cn(CCCCN4CCN(c5ccccc5OC)CC4)nn2)c1-3         pKi          6.53
3  CCCN1CCc2cccc3c2[C@H]1Cc1cccc(OCCCCN2CCN(c4ccccc4OC)CC2)c1-3         pKi          6.85

----------
- subject-of-test: D(2) dopamine receptor (Homo sapiens, UniProt P14416)
- Sequence (P14416 whole entry): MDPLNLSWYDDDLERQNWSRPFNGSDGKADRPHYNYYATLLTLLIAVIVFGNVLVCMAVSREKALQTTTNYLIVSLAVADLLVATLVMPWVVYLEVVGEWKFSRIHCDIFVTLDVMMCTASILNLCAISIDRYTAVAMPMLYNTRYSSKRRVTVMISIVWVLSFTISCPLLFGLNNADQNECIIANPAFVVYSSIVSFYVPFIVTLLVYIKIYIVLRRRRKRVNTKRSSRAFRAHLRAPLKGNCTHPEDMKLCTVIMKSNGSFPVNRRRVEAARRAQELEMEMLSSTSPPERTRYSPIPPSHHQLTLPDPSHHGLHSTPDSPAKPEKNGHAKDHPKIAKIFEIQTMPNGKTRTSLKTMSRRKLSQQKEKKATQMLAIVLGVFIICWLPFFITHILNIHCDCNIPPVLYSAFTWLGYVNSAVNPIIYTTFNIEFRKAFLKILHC
- run-description: Displacement of [3H]spiperone from dopamine D2 receptor expressed in human HEK293 cells by liquid scintillation counter
value-type: Ki

                                   compound  result_value
0  CCCN1CCc2cccc3c2C1Cc1cccc(OCCCn2cc(CCCCN4CCN(c5ccccc5OC)CC4)nn2)c1-3 (racemic)        206 nM
1  CCCN1CCc2cccc3c2C1Cc1cccc(OCCCN(CCCN2CCN(c4ccccc4OC)CC2)S(C)(=O)=O)c1-3 (racemic)        399 nM
2  CCCN1CCc2cccc3c2[C@H]1Cc1cccc(OCCCn2cc(CCN4CCN(c5ccccc5OC)CC4)nn2)c1-3        770 nM
3  CCCN1CCc2cccc3c2[C@@H]1Cc1cccc(OCCCn2cc(CCN4CCN(c5ccccc5OC)CC4)nn2)c1-3        600 nM
4  CCCN1CCc2cccc3c2C1Cc1cccc(OCc2cn(CCCCN4CCN(c5ccccc5OC)CC4)nn2)c1-3 (racemic)        661 nM
5  CCCN1CCc2cccc3c2C1Cc1cccc(OCCCCN2CCN(c4ccccc4OC)CC2)c1-3 (racemic)         88 nM
6  CCCN1CCc2cccc3c2C1Cc1cccc(OCc2cn(CCCN4CCN(c5ccccc5OC)CC4)nn2)c1-3 (racemic)       1200 nM
7  CCCN1CCc2cccc3c2[C@@H]1Cc1cccc(OCCCCN2CCN(c4ccccc4OC)CC2)c1-3        174 nM
